B1: Osa-1-4 twister ribozyme (parent)
chain: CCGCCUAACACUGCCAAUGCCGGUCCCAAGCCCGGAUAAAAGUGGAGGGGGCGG

Variants of: B1
Assay: self-cleavage, relative activity (ratio to wild type); higher = more cleavage; co-transcriptional
Please note: 1 applies when self-cleavage is 0.1 or greater, and -1 applies otherwise.

Request: Tell me whether self-cleavage is at least 0.1 here: A29C A36G
Result: -1

Request: Another variant: A28C C27A
Result: -1
